Hey, just so you know, these numbers are from the supplement of paper PMC9112550.

System: Escherichia coli TOP10;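 note: peptides expressed intracellularly from a pBAD plasmid library in pooled LB shake-flask culture, induced with 0.3% L-arabinose, DNA abundance read by NGS, three biological replicates, DESeq2 with apeglm shrinkage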
Assay: shrunken log2 fold change of peptide-encoding DNA abundance (4.5 h post-induction vs induction); higher = less antimicrobial activity (less host growth inhibition)
Conditions: time post-induction: 4.5 h; library: site-saturation at positions 5, 18, 19, 20

>  <BIOSEQUENCE>
RRIRVRPPRLPRPRPRPPKDPRP

>  <shrunken log2 fold change>
0.219

$$$$
>  <BIOSEQUENCE>
RRIRIRPPRLPRPRPRPCRMPRP

>  <shrunken log2 fold change>
-0.186

$$$$
>  <BIOSEQUENCE>
RRIRHRPPRLPRPRPRPQMCPRP

>  <shrunken log2 fold change>
-0.0203

$$$$
>  <BIOSEQUENCE>
RRIRPRPPRLPRPRPRPNESPRP

>  <shrunken log2 fold change>
-0.00438

$$$$
>  <BIOSEQUENCE>
RRIRSRPPRLPRPRPRPHRCPRP

>  <shrunken log2 fold change>
-0.209

$$$$
>  <BIOSEQUENCE>
RRIRDRPPRLPRPRPRPKHMPRP

>  <shrunken log2 fold change>
-0.192

$$$$
>  <BIOSEQUENCE>
RRIRSRPPRLPRPRPRPLSKPRP

>  <shrunken log2 fold change>
-0.0737

$$$$
>  <BIOSEQUENCE>
RRIRTRPPRLPRPRPRPLPDPRP

>  <shrunken log2 fold change>
-0.0997

$$$$
>  <BIOSEQUENCE>
RRIRNRPPRLPRPRPRPTAIPRP

>  <shrunken log2 fold change>
-0.072

$$$$
>  <BIOSEQUENCE>
RRIRHRPPRLPRPRPRPMDSPRP

>  <shrunken log2 fold change>
-0.00141

$$$$
>  <BIOSEQUENCE>
RRIRHRPPRLPRPRPRPRPLPRP

>  <shrunken log2 fold change>
0.255

$$$$
>  <BIOSEQUENCE>
RRIRARPPRLPRPRPRPFCYPRP

>  <shrunken log2 fold change>
0.0576

$$$$
>  <BIOSEQUENCE>
RRIRGRPPRLPRPRPRPHLFPRP

>  <shrunken log2 fold change>
0.0842

$$$$
>  <BIOSEQUENCE>
RRIRSRPPRLPRPRPRPGWHPRP

>  <shrunken log2 fold change>
0.234

$$$$
>  <BIOSEQUENCE>
RRIRYRPPRLPRPRPRPIPPPRP

>  <shrunken log2 fold change>
-0.171

$$$$
>  <BIOSEQUENCE>
RRIRSRPPRLPRPRPRPSCIPRP

>  <shrunken log2 fold change>
-0.223

$$$$
>  <BIOSEQUENCE>
RRIRRRPPRLPRPRPRPTNIPRP

>  <shrunken log2 fold change>
-0.304

$$$$
>  <BIOSEQUENCE>
RRIRARPPRLPRPRPRPFTGPRP

>  <shrunken log2 fold change>
-0.00992

$$$$
>  <BIOSEQUENCE>
RRIRNRPPRLPRPRPRPRVTPRP

>  <shrunken log2 fold change>
0.0249

$$$$
>  <BIOSEQUENCE>
RRIRCRPPRLPRPRPRPSNHPRP

>  <shrunken log2 fold change>
-0.718

$$$$
>  <BIOSEQUENCE>
RRIRLRPPRLPRPRPRPEIQPRP

>  <shrunken log2 fold change>
-0.0217

$$$$
>  <BIOSEQUENCE>
RRIRWRPPRLPRPRPRPPVWPRP

>  <shrunken log2 fold change>
0.478

$$$$
>  <BIOSEQUENCE>
RRIRPRPPRLPRPRPRPKPLPRP

>  <shrunken log2 fold change>
0.567

$$$$
>  <BIOSEQUENCE>
RRIRRRPPRLPRPRPRPANTPRP

>  <shrunken log2 fold change>
0.0917

$$$$
